tested on: Pseudomonas fluorescens HPPD polypeptide (wild-type and mutants); assay: Coupled HPPD activity assay: turnover and residual turnover in crude HPPD polypeptide extracts with and without Cmpd. 1; format: biochemical; conditions: absence of Cmpd. 1; changes in absorbance (OD) at 320 nm in the coupled assay, 30 min
# reported Turnover; entries follow
I only need the number, thanks.

molecule | readout type | reading
SEQ ID NO:68 (protein, mutant HPPD polypeptide) MADLYENPMGLMGFEFIEFASPTPGTLEPIFEIMGFTKVATHRSKNVHLYRQGEINLILNNEPNSIASYFAAEHGPSVCGMAFRVKDSQKAYNRALELGAQPIHIDTGPMELNLPAIKGIGGAPLYLIDRFGEGSSIYDIDFVYLEGVERNPVGAGLKVIDHLTHNVYRGRMVYWANFYEKLFNFREARYFDIKGEYTGLTSKAMSAPDGMIKIALNEESSKGAGQIEEFLMQFNGEGIQHVAFLTDDLVKTWDALKKIGMRFLTAPGDEYYEMLEGRLPDHGEPVDQLQARGILLDGSSVEGDKRLLLQIFSEQLMGPVFFEFIQRKGDDGFGPDSFKVLFEQIERDQVRRGVLTAD | Turnover | 0.182

Here is the next item to consider.
Input line: Reported Turnover for SEQ ID NO:20 (protein, mutant HPPD polypeptide) MADLYENPMGLMGFEFIEFASPTPGTLEPIFEIMGFTKVATHRSKNVHLYRQGEINLILNNEPNSIASYFAAEHGPSVCGMAFRVKDSQKAYNRALELGAQPIHIDTGPMELNLPAIKGIGGAPLYLIDRFGEGSSIYDIDFVYLEGVERNPVGAGLKVIDHLTHNVYRGRMVYWANFYEKLFNFREARYFDIKGEYTGLTSKAMSAPDGMIRIPLNEESSKGAGQIEEFLMQFNGEGIQHVAFLTDDLVKTWDALKKIGMRFMTAPGDEYYEMLEGRLPDHGEPVDQLQARGILLDGSSVEGDKRLLLQIFSERLMGPVFFEFIQRKGDDGFGPDSFKVLFEQMERDQVRRGVLTAD : what is it?
Output line: 0.166
